Test system: U2OS
Test: Incucyte cell viability with U2OS; also: filed as whole numbers so only -1 and 0 and 1 occur
Type: toxicity, cell-based
Settings: human, 18 h, 10 µM, compound concentration 10 uM, replicate number 2, timepoint 18 hours
measure: Growth Rate
Keep it simple and answer with nothing but the number.

Entry CS(=O)(=O)N1CCCC(NC(=O)[C@H](CCC2CCCCC2)NC(=O)c2ccc(CNC(=O)c3cnc4ccccn34)cc2)C1 (some centres not stated) ; Growth Rate = 1

Entry `N#CC1(c2ccccn2)CCN(Cc2cc(C(=O)O)c(=O)n3ccccc23)CC1` ; Growth Rate = 1

Entry O=C1c2ccc(Nc3ccc(F)cc3F)cc2CCc2ccc(OC[C@H](O)CO)cc21 [Skepinone-L] ; Growth Rate = 1

Entry `COc1cc(N2CCC(O)CC2)ccc1Nc1cc(Nc2ccccc2S(=O)(=O)C(C)C)c2cc[nH]c2n1` ; Growth Rate = 0

Entry `CN1CCN(c2ccc(-c3cccc(CN4CCOCC4)c3)cc2NC(=O)c2c[nH]c(=O)cc2C(F)(F)F)CC1` ; Growth Rate = 1

Entry `NC(=O)[C@@H]1CCCN1C(=O)[C@H](Cc1cnc[nH]1)NC(=O)[C@@H]1CCC(=O)N1` ; Growth Rate = 1

Entry `O=C(O)[C@H]1[C@H](Cn2nnc3ccccc3c2=O)CC[C@@H]1C(=O)c1ccc(OCCC2CCOCC2)cc1` ; Growth Rate = 1

Entry CC(C)(Cc1ccccc1)NCC(O)c1ccc(O)c(NS(C)(=O)=O)c1.Cl (configuration not stated) [ZINTEROL HYDROCHLORIDE] ; Growth Rate = 1

Entry `Cc1c(Nc2ccc(S(=O)(=O)N3CCN(C)CC3)cc2F)nc2ccc(Nc3cnn(C4CC4)c3)cn2c1=O` ; Growth Rate = 1

Entry `Cc1ccc(S(=O)(=O)NC2c3ccccc3Oc3ccccc32)cc1` ; Growth Rate = 1

Entry `c1cc(CN2CCCNCCNCCCNCC2)ccc1CN1CCCNCCNCCCNCC1` ; Growth Rate = 0

Entry `NS(=O)(=O)c1cc(NC(=O)Cc2ccccc2)ccc1Oc1cccc(Cl)c1` ; Growth Rate = 1

Entry `Cc1c(F)cccc1NC(=O)Nc1ccc(Cl)c(S(=O)(=O)[C@H]2CCCNC2)c1O` ; Growth Rate = 1

Entry `Cc1c(Nc2ccc(S(=O)(=O)N3CCN(C)CC3)cc2F)nc2ccc(-c3cnn(C4CC4)c3)cn2c1=O` ; Growth Rate = 1

Entry `Cc1cc2c(cc1-c1cc(/C=C/C(=O)O)ccc1O)C(C)(C)CCC2(C)C` ; Growth Rate = 0

Entry `CCc1cc(Nc2nccc(-c3c(-c4ccc(OC)c(C(=O)Nc5c(F)cccc5F)c4)nc4ccccn34)n2)c(OC)cc1N1CCC(N2CCN(S(C)(=O)=O)CC2)CC1` ; Growth Rate = 0

Entry CCN1CCC[C@H]1CNC(=O)c1c(OC)ccc(Br)c1OC [REMOXIPRIDE] ; Growth Rate = 1

###

Test system: U2OS
Assay: Multiplex assay against U2OS
Type: toxicity, cell-based
Details: human, 48 h, 10 µM, compound concentration 10 uM, replicate 1
measure: Population Fragmented Nuclei (%)
Provide only the numeric value, understood in %.

Item CN1C(=O)[C@@H](NC(=O)c2cc3ccccc3[nH]2)N=C(c2ccccc2)c2ccccc21 [DEVAZEPIDE] was tested on U2OS; the reported Population Fragmented Nuclei (%) is 21

Item `Cc1c(Nc2ccc(S(=O)(=O)N3CCN(C)CC3)cc2F)nc2ccc(-c3cnn(C4CC4)c3)cn2c1=O` was tested on U2OS; the reported Population Fragmented Nuclei (%) is 23

Item `CCCc1cc(C)[nH]c(=O)c1CNC(=O)c1cc(-c2ccc(N3CCN(C(C)C)CC3)nc2)cc2c1cnn2C(C)C` was tested on U2OS; the reported Population Fragmented Nuclei (%) is 26

Item CS(=O)(=O)N1CCCC(NC(=O)[C@H](CCC2CCCCC2)NC(=O)c2ccc(CNC(=O)c3cnc4ccccn34)cc2)C1 (stereo partly drawn) was tested on U2OS; the reported Population Fragmented Nuclei (%) is 10

Item CCCCCNC(=N)N/N=C/c1c[nH]c2ccc(OC)cc12.O=C(O)/C=C\C(=O)O [TEGASEROD MALEATE] was tested on U2OS; the reported Population Fragmented Nuclei (%) is 50

Item `N#Cc1cccc(C(=O)Nc2cc(-c3ccccc3)nn2-c2ccccc2)c1` was tested on U2OS; the reported Population Fragmented Nuclei (%) is 17

Item `Cc1ccc(S(=O)(=O)NC2c3ccccc3Oc3ccccc32)cc1` was tested on U2OS; the reported Population Fragmented Nuclei (%) is 11

Item `CN(c1cc(C(F)(F)F)nc(OCCC(=O)O)n1)c1cccc2c1CCC2` was tested on U2OS; the reported Population Fragmented Nuclei (%) is 5

Item `N#CCNC(=O)c1ccc(-c2ccnc(Nc3ccc(N4CCOCC4)cc3)n2)cc1` was tested on U2OS; the reported Population Fragmented Nuclei (%) is 29

Item `CC(C)c1cc(Nc2nc(N3CCC[C@H](N)C3)ncc2C(N)=O)cc(C(C)C)n1` was tested on U2OS; the reported Population Fragmented Nuclei (%) is 36

Item `c1ccc(-c2oc3ncnc(NC[C@@H]4CCCO4)c3c2-c2ccccc2)cc1` was tested on U2OS; the reported Population Fragmented Nuclei (%) is 15

Item `Oc1cccc(-c2nc(N3CCOCC3)c3oc4ncccc4c3n2)c1` was tested on U2OS; the reported Population Fragmented Nuclei (%) is 35

Item `Cl.NC[C@@H]1O[C@H](C23CC4CC(CC(C4)C2)C3)Cc2c1ccc(O)c2O` was tested on U2OS; the reported Population Fragmented Nuclei (%) is 33

Item `CC(/C=C1\SC(=S)N(CCCC(=O)Nc2ccc(C(=O)O)c(O)c2)C1=O)=C\c1ccccc1` was tested on U2OS; the reported Population Fragmented Nuclei (%) is 5

Item `CN1CCN(Cc2ccc(-c3cnc4[nH]cc(-c5ccc6[nH]ccc6c5)c4c3)cc2)CC1` was tested on U2OS; the reported Population Fragmented Nuclei (%) is 31

Item `CC(C)[C@H](CO)Nc1nc(Nc2cccc(Cl)c2)c2ncn(C(C)C)c2n1` was tested on U2OS; the reported Population Fragmented Nuclei (%) is 33

Item `Cc1c(P(=S)(c2ccccc2)c2ccccc2)n2ccccc2[n+]1C/C=C/c1ccccc1.[Br-]` was tested on U2OS; the reported Population Fragmented Nuclei (%) is 43

Item `C=CC(=O)Nc1cc(-n2c(=O)ccc3cnc4ccc(-c5ccc(NS(C)(=O)=O)cc5)cc4c32)ccc1C` was tested on U2OS; the reported Population Fragmented Nuclei (%) is 15

###

For each entry below, report its Population Tubulin-Different-Phenotype (%) value.
System: U2OS
Assay: Multiplex assay against U2OS
Type: toxicity, cell-based
Conditions: human, 48 h, 1 µM, compound concentration 1 uM, replicate 2
Give your result as the value with the unit written after it.

Item `N#Cc1cccc(C(=O)Nc2cc(-c3ccccc3)nn2-c2ccccc2)c1` was tested on U2OS; the reported Population Tubulin-Different-Phenotype (%) is 9%

Item `CC(C)[C@H](CO)Nc1nc(Nc2cccc(Cl)c2)c2ncn(C(C)C)c2n1` was tested on U2OS; the reported Population Tubulin-Different-Phenotype (%) is 10%

Item CN1C(=O)[C@@H](NC(=O)c2cc3ccccc3[nH]2)N=C(c2ccccc2)c2ccccc21 [DEVAZEPIDE] was tested on U2OS; the reported Population Tubulin-Different-Phenotype (%) is 16%

Item `CN(c1cc(C(F)(F)F)nc(OCCC(=O)O)n1)c1cccc2c1CCC2` was tested on U2OS; the reported Population Tubulin-Different-Phenotype (%) is 24%

Item `CCCCN(CC)c1nc(C)nc2c1c(C)cn2-c1c(C)cc(C)cc1C.Cl` was tested on U2OS; the reported Population Tubulin-Different-Phenotype (%) is 13%

Item `Cc1ccc(S(=O)(=O)NC2c3ccccc3Oc3ccccc32)cc1` was tested on U2OS; the reported Population Tubulin-Different-Phenotype (%) is 10%

Item CCCCCNC(=N)N/N=C/c1c[nH]c2ccc(OC)cc12.O=C(O)/C=C\C(=O)O [TEGASEROD MALEATE] was tested on U2OS; the reported Population Tubulin-Different-Phenotype (%) is 10%

Item `Cl.NC[C@@H]1O[C@H](C23CC4CC(CC(C4)C2)C3)Cc2c1ccc(O)c2O` was tested on U2OS; the reported Population Tubulin-Different-Phenotype (%) is 13%

Item `Oc1cccc(-c2nc(N3CCOCC3)c3oc4ncccc4c3n2)c1` was tested on U2OS; the reported Population Tubulin-Different-Phenotype (%) is 8%

Item `CC(C)c1cc(Nc2nc(N3CCC[C@H](N)C3)ncc2C(N)=O)cc(C(C)C)n1` was tested on U2OS; the reported Population Tubulin-Different-Phenotype (%) is 96%

Item `N#CCNC(=O)c1ccc(-c2ccnc(Nc3ccc(N4CCOCC4)cc3)n2)cc1` was tested on U2OS; the reported Population Tubulin-Different-Phenotype (%) is 22%

Item `CCCc1cc(C)[nH]c(=O)c1CNC(=O)c1cc(-c2ccc(N3CCN(C(C)C)CC3)nc2)cc2c1cnn2C(C)C` was tested on U2OS; the reported Population Tubulin-Different-Phenotype (%) is 74%

Item `Cc1c(P(=S)(c2ccccc2)c2ccccc2)n2ccccc2[n+]1C/C=C/c1ccccc1.[Br-]` was tested on U2OS; the reported Population Tubulin-Different-Phenotype (%) is 8%

Item `C=CC(=O)Nc1cc(-n2c(=O)ccc3cnc4ccc(-c5ccc(NS(C)(=O)=O)cc5)cc4c32)ccc1C` was tested on U2OS; the reported Population Tubulin-Different-Phenotype (%) is 20%

Item `C[C@@H](Oc1cc(-n2cnc3ccc(CN4CCN(C)CC4)cc32)sc1C(N)=O)c1ccccc1C(F)(F)F` was tested on U2OS; the reported Population Tubulin-Different-Phenotype (%) is 30%

Item CC(Cc1ccc(O)c(O)c1)C(C)Cc1ccc(O)c(O)c1 (stereo not drawn) [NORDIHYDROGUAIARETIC ACID] was tested on U2OS; the reported Population Tubulin-Different-Phenotype (%) is 30%

Item `CC(/C=C1\SC(=S)N(CCCC(=O)Nc2ccc(C(=O)O)c(O)c2)C1=O)=C\c1ccccc1` was tested on U2OS; the reported Population Tubulin-Different-Phenotype (%) is 14%

Item `CC(C)C[C@H](NC(=O)[C@H](Cc1ccccc1)NC(=O)CNC(=O)CNC(=O)[C@@H](N)Cc1ccc(O)cc1)C(=O)O` was tested on U2OS; the reported Population Tubulin-Different-Phenotype (%) is 31%
